- System: MCF7
- Assay explanation: Cytotoxicity against human MCF7 cells after 48 hrs by sulforhodamine B assay
- Format: functional, cell-based
- Test context: MCF7, 48 h
Task for the reader: assign each of the following molecules its reported IC90.
Numbers only; they are read as µg/mL.

Q: # assay system MCF7: give IC90 of N#C/C(=C1\SC(=O)CN1C1CCCCC1)c1nc2cc(C(=O)O)ccc2[nH]1
Result: 15

Q: # assay system MCF7: give IC90 of N#C/C(=C1\SCCCN1c1ccccc1)c1nc2cc(C(=O)O)ccc2[nH]1
Result: 15

Q: # assay system MCF7: give IC90 of N#CC(=C1CCCCC1)c1nc2cc(C(=O)O)ccc2[nH]1
Result: 11.7

====

- Tested on: MCF7
- Assay explanation: Cytotoxicity against human MCF7 cells after 48 hrs by sulforhodamine B assay
- Type: functional, cell-based
- Test context: MCF7, 48 h
Readout name: IC90 (µg/mL)
Numbers only; they are read as µg/mL.

Q: Return IC90 for the following molecule: N#C/C(=C\c1ccc(F)cc1)c1nc2cc(Cl)ccc2[nH]1
Result: 13.3

Q: Return IC90 for the following molecule: COc1cccc2c1C(=O)c1c(O)c3c(c(O)c1C2=O)C[C@@](O)(C(=O)CO)C[C@@H]3O[C@H]1C[C@H](N)[C@H](O)[C@H](C)O1
Result: 8.77

Q: Return IC90 for the following molecule: N#C/C(=C1\SCC(=O)N1c1ccccc1)c1nc2cc(Cl)ccc2[nH]1
Result: 12.6

Q: Return IC90 for the following molecule: Nc1c(-c2nc3cc(C(=O)O)ccc3[nH]2)sc(=S)n1Cc1ccccc1
Result: 14.1

Q: Return IC90 for the following molecule: COc1ccccc1C1=CS/C(=C(\C#N)c2nc3cc(C(=O)O)ccc3[nH]2)N1c1ccc(Br)cc1
Result: 13.2
